# experimentNotes: antibacterial activity against Escherichia coli – OD600, primary screen (AID 1053175)
# conditionInfo: Escherichia coli growth, OD600, 23 h
The whole screen tested about 330,000 compounds, of which about 700 (0.21%) were called active.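 The calls were made as follows: active = OD600 absorbance below the run mean of sample wells minus 3.6 SD, in any replicate (cut at about 0.56 in these data); inactive = the rest.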 Shown is part of a subset that was picked to be rich in actives.
Pick one and only one: YES for active, NO for inactive

Reference set (4 entries):
compound=CN1CCN(N=Cc2c[nH]c3ccccc23)CC1 qualitativelabel=NO
compound=CCCCCCCCCCCCn1ccc(=N)cc1 qualitativelabel=YES
compound=Cc1ccc(-n2c(-c3ccc([N+](=O)[O-])cc3)nc3ccccc3c2=O)cc1 qualitativelabel=NO
compound=Oc1ccc(C=NNP(=S)(c2ccccc2)c2ccccc2)cc1O qualitativelabel=NO

Now look at this entry.
Check the results log: what was the call for COC(=O)C1=C(c2ccc(S(C)(=O)=O)cc2)CC2CCC1N2C(=O)NCc1ccc(F)cc1 (stereo not given) ?
NO
